Assay method text: Times to onset, minimal and maximal, observed in the indexed observations. [column 'DELAI' in source]
Stated conditions: human
Recorded endpoint: Hepatotoxicity (time to onset)

>  <Substance>
RITUXIMAB

>  <Recorded endpoint>
Hepatotoxicity (time to onset)

>  <Value observed>
2 months - 7 months

$$$$
>  <Substance>
UROKINASE

>  <Recorded endpoint>
Hepatotoxicity (time to onset)

>  <Value observed>
2 days

$$$$

Ask | For the substance STIBOGLUCONATE , give its measured Hepatotoxicity (time to onset) value.
Reply | 1 week - 3 weeks

Ask | For the substance INTERFERON ALFA-2B , give its measured Hepatotoxicity (time to onset) value.
Reply | 1 week - 1 year

Ask | For the substance INTERFERON BETA , give its measured Hepatotoxicity (time to onset) value.
Reply | 3 days - 2 years

Ask | For the substance GONADOTROPIN, SERUM , give its measured Hepatotoxicity (time to onset) value.
Reply | 39 days - 6 months

Ask | For the substance SERRAPEPTASE , give its measured Hepatotoxicity (time to onset) value.
Reply | 2 days

Ask | For the substance CISPLATIN , give its measured Hepatotoxicity (time to onset) value.
Reply | 1 day - 2 weeks

Ask | For the substance INTERFERON GAMMA-1A , give its measured Hepatotoxicity (time to onset) value.
Reply | 6 days - 3 months

Ask | For the substance COLESTIPOL , give its measured Hepatotoxicity (time to onset) value.
Reply | 6 months

Ask | For the substance ALDESLEUKIN , give its measured Hepatotoxicity (time to onset) value.
Reply | 1 day - 2 years

Ask | For the substance IVERMECTIN , give its measured Hepatotoxicity (time to onset) value.
Reply | 2 days - 1 week

Ask | For the substance ENOXAPARIN , give its measured Hepatotoxicity (time to onset) value.
Reply | 12 hours - 2 weeks

Ask | For the substance NADROPARIN CALCIUM , give its measured Hepatotoxicity (time to onset) value.
Reply | 5 days - 1 week

Ask | For the substance ALTEPLASE , give its measured Hepatotoxicity (time to onset) value.
Reply | 3 days - 4 days

Ask | For the substance PARAFFIN , give its measured Hepatotoxicity (time to onset) value.
Reply | 10 years

Ask | For the substance CARBOPLATIN , give its measured Hepatotoxicity (time to onset) value.
Reply | 1 week

Ask | For the substance PEGVISOMANT , give its measured Hepatotoxicity (time to onset) value.
Reply | 4 weeks - 8 weeks

Ask | For the substance ETANERCEPT , give its measured Hepatotoxicity (time to onset) value.
Reply | 4 weeks - 14 weeks

Ask | For the substance STREPTOKINASE , give its measured Hepatotoxicity (time to onset) value.
Reply | 1 day - 1 week

Ask | For the substance PENTOSAN POLYSULFATE SODIUM , give its measured Hepatotoxicity (time to onset) value.
Reply | 1 week - 2 weeks

Ask | For the substance ANISTREPLASE , give its measured Hepatotoxicity (time to onset) value.
Reply | 6 days

Ask | For the substance INSULIN HUMAN , give its measured Hepatotoxicity (time to onset) value.
Reply | 6 days - 1 month

Ask | For the substance GEMTUZUMAB OZOGAMICIN , give its measured Hepatotoxicity (time to onset) value.
Reply | 2 days - 6 months

Ask | For the substance MEGLUMINE ANTIMONATE , give its measured Hepatotoxicity (time to onset) value.
Reply | 6 hours - 6 days

Ask | For the substance INTERFERON ALFA-2A , give its measured Hepatotoxicity (time to onset) value.
Reply | 1 week - 9 months
